Origin of measurements: PubChem BioAssay (NCATS)

test system: HaCat; assay: Cytotoxic Profiling of Annotated Libraries Using Quantitative High-Throughput Screening (AID 1296008); settings: Five cell lines viability, CellTiter-Glo ATP luminescence, 48-72 h; further: nearly all actives have a fitted effect of over 60% in size
Results filed as inconclusive are left out. The source made the active and inactive calls. The call rests on the fitted dose curve; in most records, active means well fitted inhibition curve with a large enough effect; inconclusive means small, poorly fitted or top-dose-only effect; inactive means flat fitted curve, though single readings scatter.
Return exactly one item of active, inactive

Past entries and their recorded results:
Just curious, what result did COC(=O)CCCCC(CCSS/C(CCO)=C(\C)N(C=O)Cc1cnc(C)nc1N)SC(C)=O (centres undefined) get here?
inactive

Just curious, what result did O=C(O)[C@H](O)[C@@H](O)[C@H](O[C@@H]1O[C@H](CO)[C@H](O)[C@H](O)[C@H]1O)[C@H](O)CO get here?
inactive

---
Just curious, what result did O=C(O)/C=C(\CC(=O)O)C(=O)O get here?
inactive

Just curious, what result did CN(C)CCN1CCN(c2cccc(Cl)c2)C1=O get here?
inactive

Just curious, what result did Cc1coc2ccccc2c1=O get here?
inactive

Just curious, what result did COC(=O)C1=C(C)NC(C)=C(C(=O)OCCc2ccc(N3CCN(C(c4ccccc4)c4ccccc4)CC3)cc2)C1c1cccc([N+](=O)[O-])c1 (centres undefined) get here?
inactive

----------
experiment: qHTS of pediatric cancer cell lines to identify multiple opportunities for drug repurposing: Primary screen for SJ-GBM2 cells (AID 1347091); conditions: SJ-GBM2 viability, CellTiter-Glo luminescence, 48 h; series mostly up to 46 µM
Results filed as inconclusive are left out. Active and inactive are the calls of the source. The call rests on the fitted dose curve; in most records, active means well fitted cell-killing curve with a large enough effect; inconclusive means small, poorly fitted or top-dose-only effect; inactive means no such curve, though single readings can be large or run the other way.
Return exactly one item of active, inactive

Just curious, what result did Cc1nc2n(c(=O)c1CCN1CCC(C(=O)c3ccc(F)cc3)CC1)CCS2 get here?
inactive

----------
molecular target: Cytochrome P450 2D6 (Homo sapiens) (UniProt P10635); test: Cytochrome P450 family 2 subfamily D member 6 (CYP2D6) small molecule antagonists: luciferase biochemical (cell-free) qHTS assay (AID 1645840); conditions: P450-Glo CYP2D6 enzyme, luciferin luminescence, 1 h; series mostly up to 57.4 µM; further: nearly all actives have a fitted effect of over 55% in size
Sequence (P10635 whole entry, looked up): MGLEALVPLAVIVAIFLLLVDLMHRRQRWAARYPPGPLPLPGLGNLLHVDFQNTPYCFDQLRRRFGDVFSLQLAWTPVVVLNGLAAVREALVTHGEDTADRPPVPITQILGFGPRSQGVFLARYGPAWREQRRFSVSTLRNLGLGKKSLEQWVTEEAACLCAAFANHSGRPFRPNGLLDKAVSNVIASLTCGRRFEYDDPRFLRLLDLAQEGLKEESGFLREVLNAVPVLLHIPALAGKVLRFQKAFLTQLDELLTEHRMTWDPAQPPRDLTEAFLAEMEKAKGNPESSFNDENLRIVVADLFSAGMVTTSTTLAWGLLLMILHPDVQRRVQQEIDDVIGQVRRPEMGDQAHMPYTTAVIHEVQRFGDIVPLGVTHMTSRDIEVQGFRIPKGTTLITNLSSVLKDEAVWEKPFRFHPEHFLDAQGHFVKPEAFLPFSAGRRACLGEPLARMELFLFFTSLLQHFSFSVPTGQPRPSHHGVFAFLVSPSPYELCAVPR
Inconclusive results are not listed. The source made the active and inactive calls. Calls follow the shape of the dose curve; as a rule, active = well fitted inhibition curve with a large enough effect in the repeat runs; inconclusive = weak or mixed curves; inactive = flat fitted curve, though single readings scatter.
Return exactly one item of T for active, F for inactive

Just curious, what result did O=C(NN1CCCC1)NS(=O)(=O)c1ccc(Cl)cc1 get here?
F

----------
assay: qHTS of pediatric cancer cell lines to identify multiple opportunities for drug repurposing: Primary screen for U-2 OS cells (AID 1347096); conditions: U-2 OS viability, CellTiter-Glo luminescence, 48 h; series mostly up to 46 µM; further: nearly all actives have a fitted effect of over 50% in size
Records with an inconclusive call do not appear. Activity calls are given as the source filed them. Calls come from the whole dose curve; as a rule, active = well fitted cell-killing curve with a large enough effect; inconclusive = small, poorly fitted or top-dose-only effect; inactive = flat fitted curve, though single readings scatter.
readout_type: activity change, negative = cytotoxic

# example entries with known answers
For the compound CCCC(=O)O[C@]1(C(=O)COC(=O)CC)CC[C@H]2[C@@H]3CCC4=CC(=O)CC[C@]4(C)[C@H]3[C@@H](O)C[C@@]21C , give its measured activity change, negative = cytotoxic value.
inactive

For the compound CO[C@@]1(NC(=O)CSC[C@@H](N)C(=O)O)C(=O)N2C(C(=O)O)=C(CSc3nnnn3C)CS[C@@H]21 , give its measured activity change, negative = cytotoxic value.
inactive

For the compound Cc1ccc(C(C)OC(=O)C2(C)CCC(C(=O)O)C2(C)C)cc1 (stereo not drawn) , give its measured activity change, negative = cytotoxic value.
inactive

For the compound Cc1oc(=O)oc1COC(=O)[C@@H]1N2C(=O)[C@@H](NC(=O)[C@H](N)c3ccccc3)[C@H]2SC1(C)C , give its measured activity change, negative = cytotoxic value.
inactive

For the compound CCOCCn1c(C2CCN(CCc3ccc(C(C)(C)C(=O)O)cc3)CC2)nc2ccccc21 , give its measured activity change, negative = cytotoxic value.
inactive

For the compound COC(=O)c1cc(Cl)c(NC(C)=O)cc1OC , give its measured activity change, negative = cytotoxic value.
inactive

---
For the compound C[C@H]1C[C@H](O)c2ccsc2S1(=O)=O , give its measured activity change, negative = cytotoxic value.
inactive

For the compound CC(=O)CC/C=C(\C)CC/C=C(\C)CC/C=C(\C)CCC=C(C)C , give its measured activity change, negative = cytotoxic value.
inactive

For the compound CC(C)(c1ccc(O)cc1)c1ccc(O)cc1 , give its measured activity change, negative = cytotoxic value.
inactive

For the compound CC(=O)O[C@@H]1C(=O)O[C@@H]2[C@H]1OC(=O)[C@@H]2OC(C)=O , give its measured activity change, negative = cytotoxic value.
inactive

For the compound O=C(O)c1cn(C2CC2)c2cc(Cl)c(F)cc2c1=O , give its measured activity change, negative = cytotoxic value.
inactive

----------
experiment: Drug repurposing screens with cells derived from glioblastoma tumor samples (AID 1345199); conditions: GBM patient neurospheres viability, ATP luminescence, 48 h; tumour line A; further: potency means the concentration at half of the fitted maximal effect; nearly all actives have a fitted effect of over 40% in size
Results filed as inconclusive are left out. Active and inactive are the calls of the source. Calls follow the shape of the dose curve; as a rule, active = well fitted inhibition curve with a large enough effect; inconclusive = small, poorly fitted or top-dose-only effect; inactive = flat fitted curve, though single readings scatter.
Items are presented alongside their recorded Potency.

# example entries with known answers
For the molecule O=C1[C@@H]2[C@H]3CC[C@H](C3)[C@@H]2C(=O)N1CCCCN1CCN(c2ncccn2)CC1 , give its measured Potency value.
12.6 µM (active)

For the molecule COC(=O)C1=C(C)NC(COC(N)=O)=C(C(=O)OC(C)C)C1c1cccc(Cl)c1Cl (stereo not given) , give its measured Potency value.
8.91 µM (active)

For the molecule CN=C(N)NC(=O)Nc1c(C)cccc1C , give its measured Potency value.
17.8 µM (active)

For the molecule CC1CC(=O)NN=C1c1ccc(NCC(C)(C)NCC(O)COc2cc(Cl)ccc2C#N)cc1 (stereo not given) , give its measured Potency value.
1.78 µM (active)

Proceeding to the next molecule to report its Potency.
For the molecule CO[C@@H]1[C@@H](O[C@@H]2O[C@H](C)[C@@H](O[C@H]3C[C@@](C)(O)[C@@H](O)[C@H](C)O3)[C@H](N(C)C)[C@H]2O)[C@@H](CC=O)C[C@@H](C)[C@@H](O[C@@H]2CC[C@H](N(C)C)[C@@H](C)O2)/C=C/C=C/C[C@@H](C)OC(=O)C[C@H]1OC(C)=O , give its measured Potency value.
15.8 µM (active)

----------
Assay: qHTS of pediatric cancer cell lines to identify multiple opportunities for drug repurposing: Primary screen for SK-N-SH cells (AID 1347098); further: nearly all actives have a fitted effect of over 65% in size
Settings: SK-N-SH viability, CellTiter-Glo luminescence, 48 h; series mostly up to 57 µM
Procedure: Drug repurposing or repositioning has been offered as a strategy for drug development in oncology programs. […] [1] Shen, M et al. Quantitative high-throughput phenotypic screening of pediatric cancer cell lines identifies multiple opportunities for drug repurposing. […] Cells were assayed in growth media at a density of 500-1,000 cells/well. […] After a 15 min incubation at room temperature, samples were analyzed for luminescence intensity using a ViewLux High-throughput CCD imager equipped with clear filters.
Results filed as inconclusive are left out. Activity calls are given as the source filed them. The call rests on the fitted dose curve; in most records, active means well fitted cell-killing curve with a large enough effect; inconclusive means small, poorly fitted or top-dose-only effect; inactive means no such curve, though single readings can be large or run the other way.
Return exactly one item of active, inactive

Just curious, what result did CCOC(=O)O[C@]1(C(=O)OCCl)CC[C@H]2[C@@H]3CCC4=CC(=O)C=C[C@]4(C)[C@H]3[C@@H](O)C[C@@]21C get here?
inactive

Just curious, what result did O=C(O)Cn1cnnn1 get here?
inactive

Just curious, what result did Cc1nc2n(c(=O)c1CCN1CCC(C(=O)c3ccc(F)cc3)CC1)CCS2 get here?
inactive

Just curious, what result did COC(=O)CCCCC(CCSS/C(CCO)=C(\C)N(C=O)Cc1cnc(C)nc1N)SC(C)=O (stereo not given) get here?
inactive

Just curious, what result did CCN(CC)CCOc1ccc(/C(=C(\Cl)c2ccccc2)c2ccccc2)cc1 get here?
active

Just curious, what result did C[C@H]1C[C@H]2[C@@H]3CCC4=CC(=O)C=C[C@]4(C)[C@H]3C(=O)C[C@]2(C)[C@@]1(O)C(=O)CO get here?
inactive

---
Just curious, what result did CC(C)Cc1ccc(C(C)C(=O)OCc2ccccn2)cc1 (stereo not given) get here?
inactive

Just curious, what result did Cc1nc([N+](=O)[O-])cn1-c1ccc([N+](=O)[O-])cc1 get here?
inactive

Just curious, what result did Nc1nc(=O)n([C@@H]2O[C@H](CO)[C@@H](O)[C@@H]2F)cc1I get here?
inactive

Just curious, what result did COCCOCC(OC)OC get here?
inactive

----------
test system: JEG-3; experiment: Primary qHTS to identify gynecologic anti-cancer compounds using libraries of approved drugs and bioactive compounds (AID 1345084); conditions: Gynecologic cancer cell panel viability, ATPlite luminescence, 48 h; series mostly up to 57.5 µM; further: nearly all actives have a fitted effect of over 55% in size
Inconclusive results are not listed. Calls of active or inactive are those of the source. Calls follow the shape of the dose curve; as a rule, active = well fitted cell-killing curve with a large enough effect; inconclusive = small, poorly fitted or top-dose-only effect, or effect the other way; inactive = flat fitted curve, though single readings scatter.
Return exactly one item of active, inactive

Past entries and their recorded results:
Just curious, what result did CC(CC1c2ccccc2CCc2ccccc21)CN(C)C (stereo unspecified) get here?
inactive

Just curious, what result did C[C@H](CN1CCCC1)C(=O)c1ccc(C(F)(F)F)cc1 get here?
inactive

Just curious, what result did CCCCCCCCCCCCCCCC[N+](C)(C)Cc1ccccc1 get here?
inactive

Just curious, what result did C[C@H]1C[C@H]2[C@@H]3CCC4=CC(=O)C=C[C@]4(C)[C@H]3C(=O)C[C@]2(C)[C@@]1(O)C(=O)CO get here?
inactive

Just curious, what result did CC(C)(C)c1ccc(C(=O)CCCCl)cc1 get here?
inactive

---
Just curious, what result did COc1cc(NS(=O)(=O)c2ccc(N)cc2)nc(C)n1 get here?
inactive

Just curious, what result did COc1ccc2cc(C=O)ccc2c1 get here?
inactive

Just curious, what result did O=C(C1CCCCC1)N1CC(=O)N2CCCc3ccccc3C2C1 (stereo unspecified) get here?
inactive
